Value source: patent US8883745B2

System: IL-12
Assay: IL-12 levels in sera upon i.v. glycolipid administration to C57BL/6 mice (ELISA)
Format: in vivo
Parameters: unit not given here
Details: C57BL/6, serum, hour 72
measured.metric: IL-12 levels, test 1

For IL-12, provide IL-12 levels, test 1 of CCCCCCCCCCCCCCCCCCCCCCCCCC(=O)N[C@@H](CC[C@H]1O[C@H](CO)[C@H](O)[C@H](O)[C@H]1O)[C@H](O)[C@H](O)CCCCCCCCCCCCCC [CRONY, reference compound] please. 0

For IL-12, provide IL-12 levels, test 1 of CCCCCCCCCCCCCCCCCCCCCCCCCC(=O)N[C@@H](CO[C@H]1O[C@H](CO)[C@H](O)[C@H](O)[C@H]1O)[C@H](O)[C@H](O)CCCCCCCCCCCCCC [KRN, reference compound] please. 101

For IL-12, provide IL-12 levels, test 1 of CCCCCCCCCCCCCC[C@@H](O)[C@@H](O)[C@H](CC[C@H]1O[C@H](CO)[C@H](O)[C@H](O)[C@H]1O)NC(=O)CCCCCCCCCCCCCCCCCCCOCCCCCC please. 0

For IL-12, provide IL-12 levels, test 1 of CCCCCCCCCCCCCCCCCC/C=C/CCCCCCCCC(=O)N[C@@H](/C=C/[C@H]1O[C@H](CO)[C@H](O)[C@H](O)[C@H]1O)[C@H](O)[C@H](O)CCCCCCCCCCCCCC please. 0

For IL-12, provide IL-12 levels, test 1 of CCCCCCCCCCCCCC[C@@H](O)[C@@H](O)[C@H](CC[C@H]1O[C@H](CO)[C@H](O)[C@H](O)[C@H]1O)NC(=O)CCCCCCCCCCCCCCCCCCCOCCCCC please. 46

For IL-12, provide IL-12 levels, test 1 of CCCCCCCCCCCCCCCCC/C=C/CCCCCCCCC(=O)N[C@@H](CC[C@H]1O[C@H](CO)[C@H](O)[C@H](O)[C@H]1O)[C@H](O)[C@H](O)CCCCCCCCCCCCCC please. 53

For IL-12, provide IL-12 levels, test 1 of CCCCCCCCCCCCCCCCCCCCCCCCCCCCC(=O)N[C@@H](/C=C/[C@H]1O[C@H](CO)[C@H](O)[C@H](O)[C@H]1O)[C@H](O)[C@H](O)CCCCCCCCCCCCCC please. 91

* * *

Tested on: IL-4
Assay: IL-4 levels in sera upon i.v. glycolipid administration to BALB/c mice (ELISA)
Format: in vivo
Set-up: unit not given here
Conditions: hour 2
Please provide measured IL-4 level, test 1 for the entries that follow.
Number only, no unit.

Need IL-4 level, test 1 of CCCCCCCCCCCCCC[C@@H](O)[C@@H](O)[C@H](CC[C@H]1O[C@H](CO)[C@H](O)[C@H](O)[C@H]1O)NC(=O)CCCCCCCCCCCCCCCCCCCOCCCCCC , thanks. 200

Need IL-4 level, test 1 of CCCCCCCCCCCCCCCCCCCCCCCCCC(=O)N[C@@H](CO[C@H]1O[C@H](CO)[C@H](O)[C@H](O)[C@H]1O)[C@H](O)[C@H](O)CCCCCCCCCCCCCC [KRN, reference compound] , thanks. 1809

Need IL-4 level, test 1 of CCCCCCCCCCCCCCCCCCCCCCCCCC(=O)N[C@@H](CC[C@H]1O[C@H](CO)[C@H](O)[C@H](O)[C@H]1O)[C@H](O)[C@H](O)CCCCCCCCCCCCCC [CRONY, reference compound] , thanks. 264

Need IL-4 level, test 1 of CCCCCCCCCCCCCC[C@@H](O)[C@@H](O)[C@H](CC[C@H]1O[C@H](CO)[C@H](O)[C@H](O)[C@H]1O)NC(=O)CCCCCCCCCCCCCCCCCCCOCCCCC , thanks. 122

Need IL-4 level, test 1 of CCCCCCCCCCCCCCCCCC/C=C/CCCCCCCCC(=O)N[C@@H](/C=C/[C@H]1O[C@H](CO)[C@H](O)[C@H](O)[C@H]1O)[C@H](O)[C@H](O)CCCCCCCCCCCCCC , thanks. 358

Need IL-4 level, test 1 of CCCCCCCCCCCCCCCCC/C=C/CCCCCCCCC(=O)N[C@@H](CC[C@H]1O[C@H](CO)[C@H](O)[C@H](O)[C@H]1O)[C@H](O)[C@H](O)CCCCCCCCCCCCCC , thanks. 273

Need IL-4 level, test 1 of CCCCCCCCCCCCCCCCCCCCCCCCCCCCC(=O)N[C@@H](/C=C/[C@H]1O[C@H](CO)[C@H](O)[C@H](O)[C@H]1O)[C@H](O)[C@H](O)CCCCCCCCCCCCCC , thanks. 263

* * *

System: IL-4
Test: IL-4 levels in sera upon i.v. glycolipid administration to C57BL/6 mice (ELISA)
Type: in vivo
Design: unit not given here
Conditions: hour 6
Binarize IL-4 level, test 1 at 80; below is satisfied, at or above is not satisfied.

API: query returns whether the molecule falls strictly under 80 in IL-4 level, test 1. Query: CCCCCCCCCCCCCCCCC/C=C/CCCCCCCCC(=O)N[C@@H](CC[C@H]1O[C@H](CO)[C@H](O)[C@H](O)[C@H]1O)[C@H](O)[C@H](O)CCCCCCCCCCCCCC [A-3] satisfied

API: query returns whether the molecule falls strictly under 80 in IL-4 level, test 1. Query: CCCCCCCCCCCCCCCCCCCCCCCCCCCCC(=O)N[C@@H](/C=C/[C@H]1O[C@H](CO)[C@H](O)[C@H](O)[C@H]1O)[C@H](O)[C@H](O)CCCCCCCCCCCCCC [A-2] not satisfied

API: query returns whether the molecule falls strictly under 80 in IL-4 level, test 1. Query: CCCCCCCCCCCCCC[C@@H](O)[C@@H](O)[C@H](CC[C@H]1O[C@H](CO)[C@H](O)[C@H](O)[C@H]1O)NC(=O)CCCCCCCCCCCCCCCCCCCOCCCCCC [A-4] not satisfied

API: query returns whether the molecule falls strictly under 80 in IL-4 level, test 1. Query: CCCCCCCCCCCCCCCCCC/C=C/CCCCCCCCC(=O)N[C@@H](/C=C/[C@H]1O[C@H](CO)[C@H](O)[C@H](O)[C@H]1O)[C@H](O)[C@H](O)CCCCCCCCCCCCCC [A-1] not satisfied

API: query returns whether the molecule falls strictly under 80 in IL-4 level, test 1. Query: CCCCCCCCCCCCCC[C@@H](O)[C@@H](O)[C@H](CC[C@H]1O[C@H](CO)[C@H](O)[C@H](O)[C@H]1O)NC(=O)CCCCCCCCCCCCCCCCCCCOCCCCC [A-5] satisfied

API: query returns whether the molecule falls strictly under 80 in IL-4 level, test 1. Query: CCCCCCCCCCCCCCCCCCCCCCCCCC(=O)N[C@@H](CO[C@H]1O[C@H](CO)[C@H](O)[C@H](O)[C@H]1O)[C@H](O)[C@H](O)CCCCCCCCCCCCCC [KRN, reference compound] not satisfied

API: query returns whether the molecule falls strictly under 80 in IL-4 level, test 1. Query: CCCCCCCCCCCCCCCCCCCCCCCCCC(=O)N[C@@H](CC[C@H]1O[C@H](CO)[C@H](O)[C@H](O)[C@H]1O)[C@H](O)[C@H](O)CCCCCCCCCCCCCC [CRONY, reference compound] satisfied

* * *

System: IL-4
Test: IL-4 levels in sera upon i.v. glycolipid administration to C57BL/6 mice (ELISA)
Format: in vivo
Design: unit not given here
Details: hour 2
measured.metric: IL-4 level, test 2
Number only, no unit.

Need IL-4 level, test 2 of CCCCCCCCCCCCCC[C@@H](O)[C@@H](O)[C@H](CC[C@H]1O[C@H](CO)[C@H](O)[C@H](O)[C@H]1O)NC(=O)CCCCCCCCCCCCCCCCCCCOCCCCCC , thanks. 766

Need IL-4 level, test 2 of CCCCCCCCCCCCCCCCCC/C=C/CCCCCCCCC(=O)N[C@@H](/C=C/[C@H]1O[C@H](CO)[C@H](O)[C@H](O)[C@H]1O)[C@H](O)[C@H](O)CCCCCCCCCCCCCC , thanks. 1262

Need IL-4 level, test 2 of CCCCCCCCCCCCCCCCCCCCCCCCCCCCC(=O)N[C@@H](/C=C/[C@H]1O[C@H](CO)[C@H](O)[C@H](O)[C@H]1O)[C@H](O)[C@H](O)CCCCCCCCCCCCCC , thanks. 600

Need IL-4 level, test 2 of CCCCCCCCCCCCCC[C@@H](O)[C@@H](O)[C@H](CC[C@H]1O[C@H](CO)[C@H](O)[C@H](O)[C@H]1O)NC(=O)CCCCCCCCCCCCCCCCCCCOCCCCC , thanks. 333

* * *

Test system: IL-4
Assay: IL-4 levels in sera upon i.v. glycolipid administration to C57BL/6 mice (ELISA)
Type: in vivo
Set-up: unit not given here
Settings: hour 24
measured.metric: IL-4 level, test 2
Number only, no unit.

For IL-4, provide IL-4 level, test 2 of CCCCCCCCCCCCCCCCCCCCCCCCCCCCC(=O)N[C@@H](/C=C/[C@H]1O[C@H](CO)[C@H](O)[C@H](O)[C@H]1O)[C@H](O)[C@H](O)CCCCCCCCCCCCCC [A-2] please. 58

For IL-4, provide IL-4 level, test 2 of CCCCCCCCCCCCCCCCC/C=C/CCCCCCCCC(=O)N[C@@H](CC[C@H]1O[C@H](CO)[C@H](O)[C@H](O)[C@H]1O)[C@H](O)[C@H](O)CCCCCCCCCCCCCC [A-3] please. 66

For IL-4, provide IL-4 level, test 2 of CCCCCCCCCCCCCC[C@@H](O)[C@@H](O)[C@H](CC[C@H]1O[C@H](CO)[C@H](O)[C@H](O)[C@H]1O)NC(=O)CCCCCCCCCCCCCCCCCCCOCCCCC [A-5] please. 54

For IL-4, provide IL-4 level, test 2 of CCCCCCCCCCCCCCCCCC/C=C/CCCCCCCCC(=O)N[C@@H](/C=C/[C@H]1O[C@H](CO)[C@H](O)[C@H](O)[C@H]1O)[C@H](O)[C@H](O)CCCCCCCCCCCCCC [A-1] please. 56

For IL-4, provide IL-4 level, test 2 of CCCCCCCCCCCCCCCCCCCCCCCCCC(=O)N[C@@H](CC[C@H]1O[C@H](CO)[C@H](O)[C@H](O)[C@H]1O)[C@H](O)[C@H](O)CCCCCCCCCCCCCC [CRONY, reference compound] please. 30

For IL-4, provide IL-4 level, test 2 of CCCCCCCCCCCCCC[C@@H](O)[C@@H](O)[C@H](CC[C@H]1O[C@H](CO)[C@H](O)[C@H](O)[C@H]1O)NC(=O)CCCCCCCCCCCCCCCCCCCOCCCCCC [A-4] please. 30

For IL-4, provide IL-4 level, test 2 of CCCCCCCCCCCCCCCCCCCCCCCCCC(=O)N[C@@H](CO[C@H]1O[C@H](CO)[C@H](O)[C@H](O)[C@H]1O)[C@H](O)[C@H](O)CCCCCCCCCCCCCC [KRN, reference compound] please. 16
